- test_target: T1, "Non-linked" human IL-23 (human p40 coexpressed in 293T cells with human p19:FLAG-tag peptide) (human, UniProt P29460 23-328)
- T1 sequence 1: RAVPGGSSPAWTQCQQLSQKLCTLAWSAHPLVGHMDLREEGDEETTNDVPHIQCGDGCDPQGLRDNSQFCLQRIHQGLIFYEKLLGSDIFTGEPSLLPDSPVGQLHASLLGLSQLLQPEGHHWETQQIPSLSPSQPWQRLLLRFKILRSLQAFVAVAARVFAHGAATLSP
- T1 sequence 2: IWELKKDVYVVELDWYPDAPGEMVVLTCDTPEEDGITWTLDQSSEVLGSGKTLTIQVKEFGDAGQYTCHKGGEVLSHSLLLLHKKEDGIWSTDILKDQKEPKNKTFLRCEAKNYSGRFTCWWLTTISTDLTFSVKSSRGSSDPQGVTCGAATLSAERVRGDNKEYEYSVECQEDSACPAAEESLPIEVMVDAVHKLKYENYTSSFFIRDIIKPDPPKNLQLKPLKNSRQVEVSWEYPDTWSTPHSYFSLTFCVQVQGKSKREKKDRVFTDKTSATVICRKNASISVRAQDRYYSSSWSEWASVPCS
- method_description: cell-based or functional assay
measured_quantity: IC50 (pM), blocking of Ba/F3 cell proliferation
Provide only the numeric value, understood in pM.

Q: Could you share which IC50 (pM), blocking of Ba/F3 cell proliferation value was measured for mouse anti-human IL-23p19 antibody 35F12 (antibody, V domains shown, also called m35F12) VH: QVQLQQPGAELMRPGASVRLSCKASGYSFTTSWMNWVKQRPGQGLEWIGMIHPSDSETRLNQNFKDKATLTVDRSSSTAYMQLNSPTSEDSAVYYCARGMITAPSVYWGQGTLVTVSA VL: DIVLTQSPASLAVSLGQRATISCRASKSVSTSAYSYFHWYQQKPGQPPKLLIYLASNLESGVPARFSGSGSGTDFTLNIHPVEEGDAATYYCQHSRELPWTFGGGTKLEITR ?
Ans: 73

Q: Could you share which IC50 (pM), blocking of Ba/F3 cell proliferation value was measured for mouse anti-human IL-23p19 antibody 13B5 (antibody, V domains shown, also called m13B5) VH: EVQLQQSGPELVKPGASVKMSCKASGYTFTRYLMHWVKQKPGQGLEWIGYINPYNDGTNYNEKFKGKATLTSDKSSSTAYMELSSLTSEDSAVYYCARNWDVGGYWGQGTTLTVSS VL: DIVMTQSPATLSVTPGDRVSLSCRASQSISDYLHWYQQKSHESPRLLIKYASQSISGIPSRFSGSGSGSDFTLSINSVEPEDVGVYYCQNGHSFPFTFGSGTKLEIKR ?
Ans: 113

Q: Could you share which IC50 (pM), blocking of Ba/F3 cell proliferation value was measured for mouse anti-human IL-23p19 antibody 14A3 (antibody, V domains shown) VH: EVILVESGGGFVKPGGSLKLSCAASGFTFSNYGMSWVRQTPDKGLEWVATISTGGRYIYYSDTVKGRFTISRDNAKSTLYLKMSSLRSEDTAVHFCARHEGDRYYGWYFDVWGAGTTVTVSS VL: DIVLTQSPASLAVSLGQRATISCKASQSVDYDGESYMNWYQQKPGQPPKLLIYTSSSLASGIPARFSGSGSGTNFTLNIHPVEEEDAATYCCQQGNEDLFTFGSGTKLEIKR ?
Ans: 135

Q: Could you share which IC50 (pM), blocking of Ba/F3 cell proliferation value was measured for mouse anti-human IL-23p19 antibody 20A4 (antibody, V domains shown) VH: QAQLQQSGGELARPGASVKLSCKASGYTFTSYGIKWVKQGTGQGLEWIGEIFPRSGQTYYNEKFKGKATLTADKSSSTAYMELRSLTSEDSAVYFCASNWDLDYWGQGTILTVSS VL: DIVMTQSPATLSVTPGDRVSLSCRASQSISDFLHWYRQKSHESPRLLIKYVSQSISGIPSRFSGSGSGSDFTLSINSVDPEDVGVYYCQNGHSFPYTFGGGTKLEIKR ?
Ans: 5

Q: Could you share which IC50 (pM), blocking of Ba/F3 cell proliferation value was measured for humanized anti-human IL-23p19 antibody 7G10 (antibody, human IgG1, kappa, V domains shown, Full-length humanized antibody, human IgG1 / kappa; also called hu7G10; hum7G10) VH: QVQLVQSGAEVKKPGASVKVSCKASGYTFTSNVMHWVRQAPGQGLEWMGYINPYNDGTKYNEKFKGRVTMTTDTSTSTAYMELRSLRSDDTAVYYCARNWDVAYWGQGTLVTVSS VL: DIQMTQSPSSLSASVGDRVTITCRASQSISDYLHWYQQKPGKAPKLLIYYASQSISGVPSRFSGSGSGTDFTLTISSLQPEDFATYYCQNGHSFPFTFGQGTKVEIKR ?
Ans: 10000

Attribution: patent US20130039916A1
